The values you see were collected from patent US4772551A.

Please respond with reported 50% Inhibition (concentration required to inhibit binding of antibody by 50%) for every item in the list.
target: T-2 reactive monoclonal antibody; assay type: binding, murine
Quick note: give the figure in µg/mL, leave out the unit.

Q: Which 50% Inhibition (concentration required to inhibit binding of antibody by 50%) reading was recorded for the compound `CC(=O)OC[C@]12C[C@H](OC(=O)CC(C)(C)O)C(C)=C[C@H]1O[C@@H]1[C@H](O)[C@@H](O)[C@@]2(C)[C@]12CO2` ?
A: 0.100

Q: Repeat with `CC(=O)OC[C@]12C[C@H](OC(=O)CC(C)C)C(C)=C[C@H]1O[C@@H]1[C@H](O)[C@@H](O)[C@@]2(C)[C@]12CO2`
A: 1.0

Q: Repeat with `CC1=C[C@H]2O[C@@H]3[C@H](O)[C@@H](O)[C@](C)([C@@]2(CO)C[C@@H]1OC(=O)CC(C)C)[C@]31CO1`
A: 14.9

Q: Repeat with CC(=O)OC[C@]12C[C@H](OC(=O)CC(C)C)C(C)=C[C@H]1O[C@@H]1[C@H](OC(=O)CCC(=O)O)[C@@H](OC(C)=O)[C@@]2(C)[C@]12CO2 [T-2HS, T-2-hemisuccinate]
A: 0.072

Q: Repeat with `CC(=O)OC[C@]12C[C@H](O)C(C)=C[C@H]1O[C@@H]1[C@H](O)[C@@H](OC(C)=O)[C@@]2(C)[C@]12CO2`
A: 1.6

Q: Repeat with `CC(=O)OC[C@]12C[C@H](OC(=O)CC(C)C)C(C)=C[C@H]1O[C@@H]1[C@H](OC(C)=O)[C@@H](OC(C)=O)[C@@]2(C)[C@]12CO2`
A: 0.094

Q: Repeat with `CC(=O)OC[C@]12C[C@H](OC(=O)CC(C)(C)O)C(C)=C[C@H]1O[C@@H]1[C@H](O)[C@@H](OC(C)=O)[C@@]2(C)[C@]12CO2`
A: 0.018
